// data source = BindingDB's records for doi:10.1021/jm050373g

So I've got a bunch of compounds here, and I need their pEC50 values.
# measured-target: PPAR-alpha (Mesocricetus auratus)
# method-notes: Effective concentration against hamster PPAR-alpha in Gal4 transactivation assay
Scale note: pEC50 = -log10(concentration in M).

Exam item: Query (compound): CCC1(C(=O)O)Cc2cc(OCCCOc3ccc(C(C)(C)C)cc3Cl)ccc2O1 (centres undefined) ; field requested: pEC50
Marked response: 6.55

Exam item: Which pEC50 reading was recorded for the compound CC(C)[C@@]1(C(=O)O)Cc2cc(OCCCOc3cc(C(F)(F)F)ccc3Cl)ccc2O1 ?
Marked response: 6.38

Exam item: Quick one: pEC50 for CC(C)[C@@]1(C(=O)O)Cc2cc(OCCOc3ccc(OC(F)(F)F)cc3Cl)ccc2O1 ?
Marked response: 6.43

Exam item: Recorded pEC50 for CCC1(C(=O)O)Cc2cc(OCCCOc3ccc(OCC(F)(F)F)cc3Cl)ccc2O1 (centres undefined) , please?
Marked response: 6.40
